Below, each of the molecules is paired with its reported IC50 value.
Molecular target: Nuclear receptor subfamily 0 group B member 1 (Homo sapiens);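 further: HEK293T cells transfected with SF-1 and DAX-1 plus StAR promoter luciferase reporter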
Sequence (P51843 whole entry): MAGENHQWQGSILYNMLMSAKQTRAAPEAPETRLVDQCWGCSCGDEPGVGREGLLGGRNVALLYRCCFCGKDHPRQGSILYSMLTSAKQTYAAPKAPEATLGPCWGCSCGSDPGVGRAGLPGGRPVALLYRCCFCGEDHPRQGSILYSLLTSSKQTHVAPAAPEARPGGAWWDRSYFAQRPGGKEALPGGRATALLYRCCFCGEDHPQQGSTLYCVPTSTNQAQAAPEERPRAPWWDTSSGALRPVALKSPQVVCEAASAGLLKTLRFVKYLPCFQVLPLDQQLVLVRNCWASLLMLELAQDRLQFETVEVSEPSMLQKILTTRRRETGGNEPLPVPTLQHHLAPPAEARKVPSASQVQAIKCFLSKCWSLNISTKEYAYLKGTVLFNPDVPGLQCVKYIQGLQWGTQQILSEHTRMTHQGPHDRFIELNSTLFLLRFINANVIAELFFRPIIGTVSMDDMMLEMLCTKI
Format: functional, cell-based
The source made the active and inactive calls.
measure: IC50

given smiles	measured on	experimental value
COc1ccc(/C(C)=N/Nc2nccnc2Cl)cc1	Nuclear receptor subfamily 0 group B member 1 (Homo sapiens)	> 67.6 µM (inactive)
Cc1ccc(/C=N/Nc2ccc3ccccc3n2)o1	Nuclear receptor subfamily 0 group B member 1 (Homo sapiens)	> 67.5 µM (inactive)
CCN(C(=O)c1cc2c(=O)n3ccccc3nc2n1C)C1CCCCC1	Nuclear receptor subfamily 0 group B member 1 (Homo sapiens)	> 67.5 µM (inactive)
O=C(Nc1ccc(C(=O)N2CCCCC2)cc1)C1=CSCCO1	Nuclear receptor subfamily 0 group B member 1 (Homo sapiens)	> 67.6 µM (inactive)

----------
Test: NIH-3T3 fibroblast cytotoxicity, dose response, cytotoxicity control, cell-based, fluorescence, Alamar Blue, secondary assay (AID 2327);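 further: NIH-3T3 mouse fibroblasts cultured with fluconazole at 8 µg/mL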
Format: functional
Activity calls are given as the source filed them.
Below, each of the molecules is paired with its reported EC50 value.

molecule	EC50
Cc1ccc(S(=O)(=O)c2c(C)nn(C(C)(C)C)c2OC(=O)c2ccc(Br)o2)cc1	> 160 µM (inconclusive)
NC(=O)N1CCC2(CC1)NC(=O)N(c1ccccc1)N2	> 150 µM (inconclusive)
CSc1ccc(C2c3[nH]c4ccccc4c3CCN2C(=O)c2ccnn2C)cc1 (stereo unspecified)	> 150 µM (inactive)
O=C(c1ccc2c(c1)OCO2)N1CCC2(CC1)Oc1ccc(Cl)cc1C(=O)C21CC(c2cccnc2)=NO1 (stereo unspecified)	> 150 µM (inactive)
O=C(N/N=C/c1cc(Br)ccc1O)c1cccc(N2CCCC2=O)c1	15.4 µM (inconclusive)
Cc1cc(/C=N/n2c(COc3ccccc3C)nc3ccccc3c2=O)c(O)c([N+](=O)[O-])c1	> 150 µM (inactive)

----------
Experiment: inhibitors of clade B AD8 Env fusion, dose response, cell-based, cherry-pick (AID 652062);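 further: luciferase signal from cell-cell fusion driven by HIV-1 clade B AD8 Env; potency is for inhibitors of fusion seen as a drop in luminescence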
Format: functional
Active and inactive are the calls of the source.

compound	AC50
O=C(Nc1ccccc1N1CCN(C(=O)c2ccccc2)CC1)c1ccc(Br)o1	11 µM (active)
C[C@H](CO)N1C[C@H](C)[C@H](CN(C)C(=O)N[C@H](C)c2ccccc2)OCc2ccccc2-c2c(n(C)c3ccccc23)C1=O	1.07 µM (active)
Cc1ccccc1OCc1n(CC(=O)OC2CC(C)CCC2C(C)C)c2ccccc2[n+]1C.[Cl-] (centres undefined)	7 µM (active)
CC(C)CCSc1nc(N)c(C#N)cc1C#N	25.6 µM (active)

----------
Biological target: DNA repair protein RAD52 homolog (Homo sapiens, UniProt P43351)
Sequence (P43351 whole entry): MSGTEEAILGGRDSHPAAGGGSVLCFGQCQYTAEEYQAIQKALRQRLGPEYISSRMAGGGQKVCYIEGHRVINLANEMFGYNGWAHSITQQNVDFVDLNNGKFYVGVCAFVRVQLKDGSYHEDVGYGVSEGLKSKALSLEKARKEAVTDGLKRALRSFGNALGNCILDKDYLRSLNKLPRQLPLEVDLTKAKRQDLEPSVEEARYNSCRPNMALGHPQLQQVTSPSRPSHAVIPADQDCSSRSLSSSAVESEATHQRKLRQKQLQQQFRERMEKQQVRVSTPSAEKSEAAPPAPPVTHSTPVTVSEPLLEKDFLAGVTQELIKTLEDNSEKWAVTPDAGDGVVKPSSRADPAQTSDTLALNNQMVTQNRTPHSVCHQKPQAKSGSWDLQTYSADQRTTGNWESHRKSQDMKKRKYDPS
Assay type: functional, biochemical
Activity calls are given as the source filed them.
measure: AC50

given smiles	measured on	experimental value
COc1cc2nc(Nc3ccc(F)cc3)nc(N)c2cc1OC	DNA repair protein RAD52 homolog (Homo sapiens, UniProt P43351)	7.26 µM (active)
CN1CCN(c2ccc(N)cc2Cl)CC1	DNA repair protein RAD52 homolog (Homo sapiens, UniProt P43351)	0.931 µM (active)
Nc1cc2ccncc2c2ccccc12	DNA repair protein RAD52 homolog (Homo sapiens, UniProt P43351)	14.2 µM (active)
Cn1ccc(=Nc2ccc(NC(=O)c3ccc(/N=c4\ccn(C)c5ccc([N+](=O)[O-])cc45)cc3)cc2)cc1	DNA repair protein RAD52 homolog (Homo sapiens, UniProt P43351)	1.28 µM (active)
Cc1nc(NC(=N)N)nc2ccccc12	DNA repair protein RAD52 homolog (Homo sapiens, UniProt P43351)	13.7 µM (active)
